Biological target: Cytochrome P450 3A4 (Homo sapiens)
Assay: Cytochrome panel assay with activity outcomes
Details: recombinant CYP, pro-luciferin dealkylation, luminescence, p450-cyp3a4; series mostly up to 57.1 µM
Screen size: about 16,000 compounds; about 5,100 (32%) were called active. Roughly 25% stayed inconclusive and do not appear here. Calls come from the whole dose curve; as a rule, active = well fitted curve in the direction sought with a large enough effect; inconclusive = small, poorly fitted or top-dose-only effect, or effect the other way; inactive = no such curve, though single readings can be large or run the other way. Some of the results follow.
# output must be one of 1 (active), -1 (inactive)

-- ask What classification did COc1ccc(C(C(=O)NC2CCCCC2)N2CCC3(CC2)OCCO3)cc1 (configuration not stated) end up with in this test?
-- reply 1

-- ask What classification did COc1ccccc1CNc1ncnc2ccc(-c3c(C)noc3C)cc12 end up with in this test?
-- reply 1

-- ask What classification did COc1ccccc1-c1cc(-n2ccnc2)ncn1 end up with in this test?
-- reply 1

-- ask What classification did COc1ccc(CNc2ncnc3ccc(-c4c(C)noc4C)cc23)c(OC)c1 end up with in this test?
-- reply 1

-- ask What classification did CCOC(=O)n1ccn(C)c1=S end up with in this test?
-- reply -1

-- ask What classification did O=C(CSc1nc2ccccc2[nH]1)Nc1c(F)cccc1F end up with in this test?
-- reply 1

-- ask What classification did O=c1oc2c(Cl)cc(Cl)cc2cc1-c1nnc(Nc2ccccc2F)s1 end up with in this test?
-- reply -1

-- ask What classification did COC(=O)[C@@H]1C[C@H]1[C@@H](NC(=O)c1ccccc1)c1ccccc1 end up with in this test?
-- reply -1

-- ask What classification did Clc1ccccc1-c1nccc(-n2ccnc2)n1 end up with in this test?
-- reply 1

-- ask What classification did O=C(NC1CCCCC1)C(c1ccccc1)N1CCOCC1 (configuration not stated) end up with in this test?
-- reply 1

-- ask What classification did COc1cccc(C(=O)Nc2cc(C(F)(F)F)ccc2Cl)c1 end up with in this test?
-- reply 1

-- ask What classification did Cc1ccc(C(=O)NC(=S)Nc2cc(C(F)(F)F)ccc2Cl)cc1 end up with in this test?
-- reply -1

The reported measurements were obtained from PubChem BioAssay AID1851.
